# EXPERIMENTAL_DETAILS: P. aeruginosa biofilm formation inhibitors, primary screen, PAO1 strain, BacTiter-Glo luminescence, LB-PBS (AID 1144)
# CONDITION_LABEL: 12 h, higher = more signal
OUTCOME_MEASURE: z-score

[[record]]
compound = "C=CCN(C(=O)C1N(C(C)(C)CO)C(=O)C2C(C(=O)O)C3C=CC21O3)c1ccc(OC)cc1 (configuration not stated)"
outcome_measure = "z-score"
result_number = 1.42

[[record]]
compound = "COc1ccc(COC(=O)NN=C2C[C@@H](O)[C@@H](O)[C@@H]3[C@@H]4C(=O)N(C(C)(C)C)C(=O)[C@@H]4CC[C@H]23)cc1"
outcome_measure = "z-score"
result_number = 0.439

[[record]]
compound = "COC(=O)[C@H](C)NC(=O)CCC1CC(OC(=O)NCCc2ccc(F)cc2)CC2(CCCC(COC(=O)NCCCN3CCCC3=O)O2)O1 (some centres not stated)"
outcome_measure = "z-score"
result_number = 0.0154

[[record]]
compound = "CO[C@H]1COC(=O)CC=C[C@@H](C)COC(=O)[C@H](CCSC)NC(=O)CC=C[C@@H]1C"
outcome_measure = "z-score"
result_number = -0.2

[[record]]
compound = "C=CCN(C(=O)C(c1cccs1)N(C(=O)/C=C\\C(=O)O)C(C)(C)CO)c1ccc(OC)cc1 (configuration not stated)"
outcome_measure = "z-score"
result_number = -1.09

[[record]]
compound = "CCN1C(=O)[C@H]2[C@H]3[C@H](O)[C@H](O)CC(=NOC)[C@@H]3CC[C@H]2C1=O"
outcome_measure = "z-score"
result_number = -1.16

[[record]]
compound = "CCOC(=O)C[C@H]1[C@H](OC(=O)c2ccccc2-c2ccccc2)[C@@H](NC(=O)Cc2ccc(OC)cc2)c2cc(OCCCO)ccc2N1C(=O)Cc1ccc(OC)cc1"
outcome_measure = "z-score"
result_number = 0.0825


----------
# EXPERIMENTAL_DETAILS: cell viability in Huh7 cells, primary screen, cytotoxicity control for HCV replication inhibitor project, CellTiter-Glo luminescence, basal, 48 h (AID 1143);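 note: Huh7 hepatoma cells carrying a hepatitis C replication reporter with no stimulus; test concentration not given here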
# CONDITION_LABEL: Huh7 HCV replicon, higher = more signal, called active from +8 up or from −8 down
# z-score per entry
OUTCOME_MEASURE: z-score

[[record]]
substance_smiles = "CCOC(=O)NN=C1C[C@@H](O)[C@@H](O)[C@@H]2[C@@H]3C(=O)N(Cc4ccc5c(c4)OCO5)C(=O)[C@@H]3CC[C@@H]12"
result_number = -0.299

[[record]]
substance_smiles = "CCOC(=O)NN=C1C[C@@H](O)[C@@H](O)[C@@H]2[C@@H]3C(=O)N(Cc4ccccc4)C(=O)[C@@H]3CC[C@@H]12"
result_number = 0.162

[[record]]
substance_smiles = "CCOC(=O)CCN1C(=O)[C@H]2[C@H]3[C@H](O)[C@H](O)CC(=NNC(=O)OCC)[C@@H]3CC[C@H]2C1=O"
result_number = 0.0243

[[record]]
substance_smiles = "CCCNC(=O)OC[C@H]1O[C@H](CCON=C(C)CCC(=O)OC[C@H]2O[C@H](C#Cc3ccccc3)C=C[C@@H]2Oc2ccc(C)cc2)C=C[C@@H]1Oc1ccc(OC)cc1"
result_number = -0.538

[[record]]
substance_smiles = "CC(C)CCN1CCc2nc(-c3ccccc3)c3c(c2C1)CO[C@@H](C)C3"
result_number = 0.267

[[record]]
substance_smiles = "C[C@@H](ON=C1[C@H]2CCn3c(=O)n(-c4ccccc4)c(=O)n3[C@H]2[C@H](O)[C@@H]2O[C@H]12)c1cn([C@H](CO)Cc2ccccc2)nn1"
result_number = 1.13

[[record]]
substance_smiles = "CCN1C(=O)[C@H]2[C@H]3[C@H](O)[C@H](O)CC(=NOC)[C@@H]3CC[C@H]2C1=O"
result_number = 0.359

[[record]]
substance_smiles = "CC(C)=NOCc1ccc(-c2cn([C@@H]3COC[C@H]3O)nn2)cc1"
result_number = 0.164

[[record]]
substance_smiles = "CO[C@H]1COC(=O)CC=C[C@@H](C)COC(=O)[C@@H](OCc2ccccc2)C=C[C@@H]1C"
result_number = -0.356

[[record]]
substance_smiles = "O=C(NN=C1C[C@@H](O)[C@@H](O)[C@@H]2[C@@H]3C(=O)N(Cc4ccc5c(c4)OCO5)C(=O)[C@@H]3CC[C@H]12)OCc1ccccc1"
result_number = 0.0294


----------
# ASSAYED_TARGET: Dihydroorotate dehydrogenase (quinone), mitochondrial (Plasmodium falciparum (isolate 3D7))
# EXPERIMENTAL_DETAILS: PfDHODH enzyme inhibitors, primary screen, biochemical, C-terminal His tag, absorbance 600 nm (AID 1175);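 note: recombinant parasite enzyme with a five histidine tag at its C terminus; test concentration not given here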
# CONDITION_LABEL: DCIP absorbance 600 nm, higher = more signal, called active from +8 up or from −8 down
OUTCOME_MEASURE: composite z-score

[[record]]
molecule = "COC(=O)[C@H](C)NC(=O)CCC1CC(OC(=O)NCCc2ccc(F)cc2)CC2(CCCC(COC(=O)NCCCN3CCCC3=O)O2)O1 (stereo partly specified)"
result_number = 0.322

[[record]]
molecule = "CC(C)CCN1CCc2nc(-c3ccccc3)c3c(c2C1)CO[C@@H](C)C3"
result_number = -0.363

[[record]]
molecule = "C#CCCCON=C1C[C@@H](O)[C@@H](O)[C@@H]2[C@@H]3C(=O)N(C4CCCCC4)C(=O)[C@@H]3CC[C@H]12"
result_number = -0.822

[[record]]
molecule = "CCOC(=O)NN=C1C[C@@H](O)[C@@H](O)[C@@H]2[C@@H]3C(=O)N(Cc4ccc5c(c4)OCO5)C(=O)[C@@H]3CC[C@@H]12"
result_number = -0.225

[[record]]
molecule = "CCOC(=O)[C@H](CC(C)C)NC(=O)CCC1CC(OC(=O)NCc2cccc3ccccc23)CC2(CCCC(COC(=O)NCc3ccccc3)O2)O1 (stereo partly specified)"
result_number = -0.621

[[record]]
molecule = "CCN1C(=O)[C@H]2[C@H]3[C@H](O)[C@H](O)CC(=NNC(=O)OCc4ccc(OC)cc4)[C@H]3CC[C@H]2C1=O"
result_number = -0.223


----------
# composite z-score per entry
# ASSAYED_TARGET: E3 ubiquitin-protein ligase XIAP (Homo sapiens) (UniProt P98170)
# Sequence (P98170 whole entry, looked up): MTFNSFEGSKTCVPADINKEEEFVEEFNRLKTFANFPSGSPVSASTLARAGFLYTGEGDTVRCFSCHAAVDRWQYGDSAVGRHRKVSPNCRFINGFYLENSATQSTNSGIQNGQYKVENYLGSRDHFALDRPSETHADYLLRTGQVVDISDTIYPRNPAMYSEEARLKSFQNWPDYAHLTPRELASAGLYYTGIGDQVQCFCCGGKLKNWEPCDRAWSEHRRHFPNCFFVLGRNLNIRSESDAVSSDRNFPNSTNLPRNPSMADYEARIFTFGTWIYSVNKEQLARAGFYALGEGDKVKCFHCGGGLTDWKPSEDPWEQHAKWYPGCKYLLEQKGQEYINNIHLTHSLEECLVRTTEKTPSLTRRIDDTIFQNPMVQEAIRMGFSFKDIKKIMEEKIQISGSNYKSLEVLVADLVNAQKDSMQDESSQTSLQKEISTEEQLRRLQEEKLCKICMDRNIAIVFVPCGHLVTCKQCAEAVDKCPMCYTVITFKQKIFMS
# EXPERIMENTAL_DETAILS: XIAP binders, primary screen, biophysical, small-molecule microarray, fluorescence 635 nm (AID 1181);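 note: score merges 667 nm emission and signal to noise over triplicate slides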
# CONDITION_LABEL: small-molecule microarray binding, higher = more signal
OUTCOME_MEASURE: composite z-score

[[record]]
compound = "CO[C@H]1COC(=O)[C@H](C)NC(=O)CC=C[C@@H](C)[C@H](OC)COC(=O)CC=C[C@@H]1C"
outcome_measure = "composite z-score"
result = 0.234

[[record]]
compound = "CCOC(=O)[C@H](Cc1ccccc1)NC(=O)CCC1CC(OC(=O)NCc2cccc3ccccc23)CC2(CCCC(COC(=O)NCCCN3CCCC3=O)O2)O1 (stereo not given in full)"
outcome_measure = "composite z-score"
result = -0.336

[[record]]
compound = "CCCNC(=O)OC[C@H]1O[C@H](CCON=C(C)CCC(=O)OC[C@H]2O[C@H](C#Cc3ccccc3)C=C[C@@H]2Oc2ccc(C)cc2)C=C[C@@H]1Oc1ccc(OC)cc1"
outcome_measure = "composite z-score"
result = 0.0408

[[record]]
compound = "CCOC(=O)NN=C1C[C@@H](O)[C@@H](O)[C@@H]2[C@@H]3C(=O)N(Cc4ccccc4)C(=O)[C@@H]3CC[C@@H]12"
outcome_measure = "composite z-score"
result = 1.34

[[record]]
compound = "CC(C)=NOCc1ccc(-c2cn([C@@H]3COC[C@H]3O)nn2)cc1"
outcome_measure = "composite z-score"
result = 0.0049


----------
# EXPERIMENTAL_DETAILS: fission yeast growth modulation, primary screen, strain 972, OD600, 24 h, no modulator (AID 1090);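 note: basal condition with compound alone and no growth modifier present; test concentration not given here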
# CONDITION_LABEL: S. pombe 972 growth, higher = more signal, called active from +8 up or from −8 down
Mark Fulfilled for reported z-score of -0.2 or greater; mark Not fulfilled for anything smaller.

[[record]]
compound = "COC(=O)[C@H](C)NC(=O)CCC1CC(OC(=O)NCCc2ccc(F)cc2)CC2(CCCC(COC(=O)NCCCN3CCCC3=O)O2)O1 (stereo partly drawn)"
classification = "Fulfilled"

[[record]]
compound = "CC(C)=NOCc1ccc(-c2cn([C@@H]3COC[C@H]3O)nn2)cc1"
classification = "Fulfilled"

[[record]]
compound = "O=C(NN=C1C[C@@H](O)[C@@H](O)[C@@H]2[C@@H]3C(=O)N(Cc4ccc5c(c4)OCO5)C(=O)[C@@H]3CC[C@H]12)OCc1ccccc1"
classification = "Fulfilled"

[[record]]
compound = "C#CCCCON=C1C[C@@H](O)[C@@H](O)[C@@H]2[C@@H]3C(=O)N(C4CCCCC4)C(=O)[C@@H]3CC[C@H]12"
classification = "Not fulfilled"

[[record]]
compound = "CO[C@H]1COC(=O)CC=C[C@@H](C)COC(=O)[C@@H](OCc2ccccc2)C=C[C@@H]1C"
classification = "Not fulfilled"

[[record]]
compound = "C[C@@H]1CC[C@@H](C(=O)O)N[C@H]1c1ccc(-c2ccco2)cc1"
classification = "Not fulfilled"

[[record]]
compound = "CC(C)=NOC[C@@H](O)COCc1ccco1"
classification = "Fulfilled"

[[record]]
compound = "CCOC(=O)[C@H](Cc1ccccc1)NC(=O)CCC1CC(OC(=O)NCc2cccc3ccccc23)CC2(CCCC(COC(=O)NCCCN3CCCC3=O)O2)O1 (stereo partly drawn)"
classification = "Fulfilled"

